measure: melting point

Record COC(=O)c1c(N(Cc2ccc(C(F)(F)F)cc2)C(C)=O)sc2c(Cl)c(O)ccc12 [Example 21] , field melting point: 176 to 180 °C

The molecule CC(=O)N(Cc1ccccc1)c1sc2c(Cl)c(O)ccc2c1C(=O)N1CCCCC1 [Example 82] showed melting point equal to 95 to 100 °C

// field: melting point; key: CCOC(=O)c1c(N(Cc2ccc(Cl)cc2)C(C)=O)sc2cc(O)ccc12 ; value = 172 to 176 °C

// COC(=O)c1c(N(CCc2ccccc2F)C(C)=O)sc2cc(O)ccc12 : melting point value = 183 to 185 °C

Query CCCNC(=O)c1c(N(Cc2ccccc2)C(C)=O)sc2cc(O)ccc12 [Example 80] yields melting point of 85 to 90 °C

Record COC(=O)c1c(N(C(C)=O)C(C)c2ccccc2)sc2cc(O)ccc12 (stereo not shown) [Example 38] . Reported melting point: 152 to 157 °C

Form: molecule = COC(=O)c1c(N(Cc2ccc(C(F)(F)F)cc2)C(C)=O)sc2cc(O)ccc12 [Example 22] ; melting point = 171 to 175 °C

Consider CNC(=O)c1c(N(Cc2ccccc2F)C(C)=O)sc2c(Cl)c(O)ccc12 [Example 75] . Its measured melting point is 108 to 112 °C

melting point recorded for this molecule, CC(=O)N(Cc1ccccc1)c1sc2cc(O)ccc2c1C(=O)OC(C)C [Example 8] , is 126 to 130 °C

melting point in this record for COC(=O)c1c(N(Cc2ccccc2C#N)C(C)=O)sc2cc(O)ccc12 : 168 to 172 °C

Entry CC(=O)N(Cc1ccccc1)c1sc2c(Cl)c(O)ccc2c1C(=O)OC(C)(C)C [Example 5] ; melting point = 200 to 205 °C

Entry under test: COC(=O)c1c(N(Cc2ccc(C)cc2)C(C)=O)sc2cc(O)ccc12 . Its melting point was 160 to 164 °C

Recorded melting point (molecule CC(=O)N(Cc1ccccc1Cl)c1sc2c(Cl)c(O)ccc2c1C(=O)O [Example 68] ): 265 to 270 °C

For reference, reported melting point for CCNC(=O)c1c(N(Cc2ccccc2)C(C)=O)sc2cc(O)ccc12 [Example 79] stands at 138 to 142 °C

Just so you know, measured melting point for COC(=O)c1c(N(Cc2ccccc2Cl)C(C)=O)sc2cc(O)ccc12 [Example 16] came out at 220 to 224 °C

melting point measured on COC(=O)c1c(N(Cc2ccc(F)cc2)C(C)=O)sc2cc(O)ccc12 [Example 28] = 198 to 202 °C

Entry under test: COC(=O)c1c(N(Cc2ccc(F)cc2F)C(C)=O)sc2c(Cl)c(O)ccc12 [Example 29] . Its melting point was 205 to 210 °C

Form: molecule = CNC(=O)c1c(N(Cc2ccc(F)cc2)C(C)=O)sc2c(Cl)c(O)ccc12 [Example 77] ; melting point = 192 to 195 °C

The molecule COC(=O)c1c(N(Cc2cccc3ccccc23)C(C)=O)sc2cc(O)ccc12 [Example 32] showed melting point equal to 198 to 202 °C
